tested on: MDA-MB-231; experiment: NCI tumour cell line growth inhibition, 48 h
The source made the active and inactive calls. Cut-off read from the data, not from the text of the source: active = GI50 up to about 1.1 µM and inactive = higher.
Parameter measured: GI50

The following compounds have reported results that may help.
CC1(C)O[C@H]([C@H](O)c2nnc3ccc(Cl)nn23)[C@@H]([C@H]2COC(C)(C)O2)O1 = > 100 µM (inactive)
CC(=O)c1nc2ccccc2n1CC(=O)c1ccc([N+](=O)[O-])cc1 = 26.1 µM (inactive)

Now for a further compound.
The reported value for COc1ccc2c(c1)nc1n2C(c2c(Cl)cccc2Cl)SC1 (configuration not stated) in terms of GI50 is 29.3 µM (inactive)

---

Readings of GI50 for the listed compounds
system: NCI-H460; assay: NCI tumour cell line growth inhibition, 48 h
Activity calls are given as the source filed them. Cut-off read from the data, not from the text of the source: active = GI50 up to about 1.1 µM and inactive = higher.

COc1cc(Nc2nc3ccccc3nc2-c2cccs2)cc(OC)c1OC has a reported GI50 of 33.7 µM (inactive)

So, Fc1ccccc1-c1nn2c(C34CC5CC(CC(C5)C3)C4)nnc2s1 ? Its GI50 was > 100 µM (inactive)

---

system: UACC-257; assay: NCI tumour cell line growth inhibition, 48 h
Activity calls are given as the source filed them. Rule as the data show it: active = GI50 up to about 1.1 µM and inactive = higher.
Reported GI50 values for the following compounds.

Field: example entries. Status: answers known.
CC(C)(C)OC(=O)N(CCCN)CCCCN = > 100 µM (inactive)
Cc1ccc(S(=O)(=O)NC(=O)C2C(=O)CC3(CCCCC3)CC2=O)cc1 = 28.6 µM (inactive)
CC1=CC[C@@H]2[C@@H](CC[C@@]2(C)O)C(C)(C)[C@H]1CC[C@@H]1[C@@]2(C)CCC(=O)C(C)(C)O[C@@H]2CC[C@]1(C)O = 30.3 µM (inactive)
CCCn1c(CN(Cc2nc3ccccc3n2CCC)Cc2nc3ccccc3n2CCC)nc2ccccc21 = 7.36 µM (inactive)

Turning now to a further compound:
Please fill in: GI50 reported for COc1c(C)n(CCO)ccc1=O = > 100 µM (inactive)

---

This section presents molecules with their documented GI50 values.
tested on: RXF 631; test: NCI tumour cell line growth inhibition, 48 h
Activity calls are given as the source filed them. No stated cut-off is given here; in the data, active = GI50 up to about 1.1 µM and inactive = higher.

Sample records with GI50:
CN1CCCN2CCN(C)CCCN(CC1)CC2 = > 100 µM (inactive)
CC1(C)CCCC2(C)[C@@H]1CC[C@]13C[C@](C)(CC[C@@H]21)[C@@H]3CO (some centres undefined) = > 100 µM (inactive)
Cc1ccc(NC(=O)CC/C(CC(=O)c2ccc(F)cc2)=N\NC(=O)C(=O)NN)cc1C = > 100 µM (inactive)
O=C1c2c(nc3ccccc3c2-c2ccccc2)CN1Nc1ccccn1 = 15.8 µM (inactive)
CC1(C)CC[C@H](C2=CC(=O)c3c(O)ccc(O)c3C2=O)O1 = 1.15 µM (inactive)

Measured GI50 (RXF 631), entry Nc1ccc2c(c1)C(=O)N(OS(=O)(=O)c1ccccc1)C2=O : > 100 µM (inactive)

---

test system: IGROV-1; experiment: NCI tumour cell line growth inhibition, 48 h
Calls of active or inactive are those of the source. No stated cut-off is given here; in the data, active = GI50 up to about 1.1 µM and inactive = higher.
Respond only with the outcome that fits, drawn from t for active, f for inactive

Cc1ccc(/C=C2\CN(C)CC3=C2N=C(S)NC3c2ccc(C)cc2)cc1 (centres undefined) = f
O=c1ccc2ccc(S)cc2o1 = f
COC(=O)C(Cc1ccccc1I)C1=CCC2(CC1)OCCO2 (centres undefined) = f
COC(=O)NC1(NC(=O)OC)NC(=O)c2cc(OC)c(OC)c(OC)c2N1 = f
O=C1C(C2=[N+]([O-])c3ccccc3C2=O)=[N+]([O-])c2ccccc21 = f
COc1ccc2nc3ccccc3c(NCCCCCCN(CCCl)CCCl)c2c1 = t
CC(=O)OCC12CN(C#N)C3C4COC(CC41)C1(C(=O)N(C)c4ccccc41)C32 (centres undefined) = f
COC(C)(C)C1=CCC(C)CC1 (centres undefined) = f

Read the next record carefully.
Lookup: Kindly provide the recorded test outcome for the following compound: COC(=O)C1=CCON(c2ccccc2)C1c1ccccc1 (centres undefined)
Found: f
